- Target under test: adenylate kinase (AdK) (Escherichia coli)
- Sequence (P69441 whole entry): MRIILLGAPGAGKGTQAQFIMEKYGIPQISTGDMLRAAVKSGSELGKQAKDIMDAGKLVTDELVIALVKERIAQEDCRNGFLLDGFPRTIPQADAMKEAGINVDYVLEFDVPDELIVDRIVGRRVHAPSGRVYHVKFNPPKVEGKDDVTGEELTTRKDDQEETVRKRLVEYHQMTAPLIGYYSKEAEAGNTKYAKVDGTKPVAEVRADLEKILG
Reported metric: Kd (µM)

>>> df
                        structure_as_smiles  numeric_value
0  Nc1ncnc2c1ncn2[C@@H]1O[C@H](COP(=O)(O)OP(=O)(O)O)[C@@H](O)[C@H]1O              9

The reported numbers originate from paper PMC8297476.
